Data provenance is PubChem BioAssay (NCI).

Tested on: SN12C renal
Assay: NCI tumour cell line growth inhibition, 48 h
QUANTITY_MEASURED: TGI

compound=CC(=O)NNc1nc(C)c(C(=O)/C=C/c2ccc(/C=C/C(=O)c3sc(NNC(C)=O)nc3C)cc2)s1 measured="> 100 µM"

What measured TGI goes with COc1cc([C@H]2Oc3c(OC)cc(CCCO)cc3[C@@H]2CO)ccc1O ? > 100 µM

What measured TGI goes with N#CC1(c2ccccc2)CCN(C2(c3ccccc3)CCCCC2)CC1 ? > 100 µM

What measured TGI goes with CC(=O)Nc1ccc(C(=O)NN2C(=O)C(Cl)C2c2ccc(O)cc2)cc1 (stereo unspecified) ? > 100 µM

What measured TGI goes with CSCCCNC(=O)c1csc(-c2csc(CCNC(=O)CNC(=O)CNC(=O)CNC(=O)OC(C)(C)C)n2)n1 ? > 100 µM

What measured TGI goes with CC(=O)[CH-]C(=O)Nc1ccccc1.CC(=O)[CH-]C(=O)Nc1ccccc1.CC[O-].CC[O-].[Ti+4] ? > 100 µM
